Documented pIC50 across a set of compounds
TGT: recombinant Aurora B (Homo sapiens)
METHOD: Aurora B enzyme assay (IMAP fluorescence polarization, Tamra-PKAtide substrate)
CONDITION NOTES: 26 nM enzyme, 50 μM ATP, 100 nM Tamra-PKAtide, 2 hours at room temperature
# pIC50 = -log10(concentration in molar units)

- COMPOUND STRUCTURE STRING: "COc1ccc(Sc2cn3c(-c4cn[nH]c4)cnc3c(Nc3cc(C)ns3)n2)cc1"
  pIC50: 7.62

Provide measured pIC50 value, entry: "CNC(=O)CSc1cn2c(-c3cn[nH]c3)cnc2c(Nc2cc(C)ns2)n1"
7.82

Provide measured pIC50 value, entry: "Cc1cc(Nc2nc(Sc3ccc(NC(=O)C4CC4)cc3)cn3c(-c4cn[nH]c4)cnc23)sn1"
7.17

Provide measured pIC50 value, entry: "CSc1cn2c(-c3cc[nH]n3)cnc2c(Nc2cc(C)ns2)n1"
6.65

Provide measured pIC50 value, entry: "COc1cccc(Sc2cn3c(-c4cn[nH]c4)cnc3c(Nc3cc(C)ns3)n2)c1"
6.94

Provide measured pIC50 value, entry: "Cc1cc(Nc2nc(Sc3ccccc3Cl)cn3c(-c4cn[nH]c4)cnc23)sn1"
6.35

Provide measured pIC50 value, entry: "Cc1cc(Nc2nc(Sc3cccc(Cl)c3)cn3c(-c4cn[nH]c4)cnc23)sn1"
8.00

* * *

TGT: recombinant Aurora B (Homo sapiens, UniProt Q96GD4)
Sequence (Q96GD4 whole entry): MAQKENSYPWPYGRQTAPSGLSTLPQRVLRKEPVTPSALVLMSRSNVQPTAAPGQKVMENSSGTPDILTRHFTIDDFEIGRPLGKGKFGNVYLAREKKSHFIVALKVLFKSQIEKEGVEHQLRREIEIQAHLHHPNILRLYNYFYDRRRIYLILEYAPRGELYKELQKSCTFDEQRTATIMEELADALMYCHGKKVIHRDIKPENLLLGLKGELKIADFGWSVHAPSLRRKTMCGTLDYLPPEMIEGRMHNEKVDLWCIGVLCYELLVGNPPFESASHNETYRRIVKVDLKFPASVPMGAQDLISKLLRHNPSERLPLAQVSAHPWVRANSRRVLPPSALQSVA
METHOD: Aurora B enzyme assay (IMAP fluorescence polarization, Tamra-PKAtide substrate)
CONDITION NOTES: 26 nM enzyme, 50 μM ATP, 100 nM Tamra-PKAtide, 2 hours at room temperature
pIC50: −log10 of the molar value.
Documented pIC50 across a set of compounds

These solved cases illustrate the format of a correct answer.
- COMPOUND: "CSc1cn2c(-c3cccc(C)c3)cnc2c(Nc2cc(C)ns2)n1"
  pIC50: "< 5.52"
- COMPOUND: "Cc1cc(Nc2nc(SC3CCNC3)cn3c(-c4cnn(C)c4)cnc23)sn1 (stereo not drawn)"
  pIC50: "< 5.52"

Read the next record carefully.
Provide measured pIC50 value, entry: "Cc1cc(Nc2nc(SC3CC3)cn3c(-c4cn[nH]c4)cnc23)sn1"
> 6.00
